Experiment: soluble on expression in E. coli; label from the status in PepcDB or PDB records
reported property: soluble on expression in E. coli

Below are worked cases with known answers.
MAHHHHHHMQSSISQEKLQLMQKNFNLVDLNKDGKIAAEEFKTLLRLLGQTKTEKEMDEMVDKHFEDAPIGEEQQQDAAEAADKGGANEGTPSTAKQLGGQKNTAKTAPNHDRIKNLIAKLNNSKDEDKKKNSPNGQINRTGDVYAKNELINKKKKHINFETFLRIFLETYEEPLSVDELITSFEFFDKEKSGYLDEEKVRFILKNSEERLADEDMKLFLNSLNLRDKDKIDYVMLAKRLKNVA    not soluble
MAHHHHHHMQETQELRCATTQMAPAVIFPLPPPLRGSYIDRKPTAASFNEHHATASFRHHMIASADVSHRPRHFYFASGTRNDTGTRSVKEGERKQLKQQTNVEVDSVAYGDQLDELSARWAAKFYGQVTFGPRNYPYPSSRWLARRFQMKKHRIIKRFRFRRYKLAAVANLPFAKMIRVGMLPELKSSKTKRGDVVDPTLSGQLVSAVKNTGEKRKGQRTRPKSKYQV    soluble
GSPGISGGGGGILMDVNVGLSRLQSQAGAPVGTKGSNTRLAAKQRETLQAYDYLCRVDEAKKWIEECLGTDLGPTSTFEQSLRNGVVLALLVQKFQPDKLIKIFYSNELQFRHSDNINKFLDFIHGIGLPEIFHFELTDIYEGKNLPKVIYCIHALSYFLSMQDLAPPLIKSDENLSFTDEDVSIIVRRLRQSNVILPNFKAL    soluble
MTKLGYVMTKSSAKNFKIYINGSAKGFKNIIISGAKAWNPSPYLNTVSIGNDVRPNYTVSSSGTNKGSVLAVCNTTYYKSNKLISKNEITLYKGFRSLSTNHKIETIVHEFGHGFGLGHVKTKNAIMLDKGFINKTKPQTDDFNGIKALYKLEHHHHHH    soluble
MSLKEELLEAIYGTVERLEQKVDELSASPKNTEAESTPVSVSVDTSKLEKAILAMAVKEGEAIDKLVRLREAICIFTDLTKKEASKDEQRSKLLFDTINQVKQELNATSKNVQDKLHAMDNAPLKKVVTHRFEPTSKYVLLFIGGLALSLVISIWGNLAQWREYQAWEVADLKYRALKMVLPSDDPNVRYIEKHFSVCRDEKVIDDVRNCVAAYEDSIRHHHEMVEMATYKDSIANKLLQESNRIIRAMKSSKEGHHHHHH    not soluble

Q: Any idea what its soluble on expression in E. coli is? The sequence is MKILRFNEGRWGVLEGELVLETDGPGGNPTGRRYDLASVTLLPPATPTKIVCVGRNYREHIREMGHDFGEDLPKEPGLFLKGPNALARPGNPRDPWGTAEPVPYPFFTEELHYEGELAVVVGDRMRHVPPEKALDHVLGYTVAVDITARDVQKKDLQWVRAKSADKFLPLGPWLETDLNPQDTWVRTYVNGTLRQEGHTSQMIFSVAEILSYISTFMTLEPLDVVLTGTPEGVGALRPGDRLEVAVEGVGTLFTLIGPKEERPW
Result: soluble

Q: Any idea what its soluble on expression in E. coli is? The sequence is AIATDSASLQFVSPYAFEAMQKVDVARLAALSDPELRLLLPCLVRMALCAPADQSNAWAQDKKLILRLLSGVEAVNSIVALLSVDFHALEQDARKEQQLRHKAGGSNGESILVSQLQHGLTLEFEHSDPLRRLRLALSELLAIMNKVQCPFIYSCIGMLIRVIFPTGAH
Result: soluble

meta.source: the DeepSol protein solubility set
